Assay: in vitro
Conditions: human
Give viability at 25 µM for every item shown.
Provide only the numeric value, understood in %.

Request: I am curious: what viability at 25 µM value has been reported for C[C@]12CCC=CC1CCC1C2CC[C@]2(C)[C@@H](c3ccc(=O)oc3)CC[C@]12O (stereo partly shown) [Compound 2, bufalin 3,4-ene] ?
Response: 24.7

Request: I am curious: what viability at 25 µM value has been reported for C[C@@H]1O[C@@H](O[C@H]2C[C@@H](O)[C@]3(CO)[C@H]4[C@H](O)C[C@]5(C)[C@@H](C6=CC(=O)OC6)CC[C@]5(O)[C@@H]4CC[C@]3(O)C2)[C@H](O)[C@H](O)[C@H]1O [Ouabain, ouabain] ?
Response: 1.92

Request: I am curious: what viability at 25 µM value has been reported for C[C@]12CC=CCC1CCC1C2CC[C@]2(C)[C@@H](c3ccc(=O)oc3)CC[C@]12O (stereo partly shown) [Compound 1, bufalin 2,3-ene] ?
Response: 13.8

Request: I am curious: what viability at 25 µM value has been reported for C[C@H]1O[C@@H](O[C@H]2[C@@H](O)C[C@H](O[C@H]3[C@@H](O)C[C@H](O[C@H]4CC[C@@]5(C)[C@H](CC[C@@H]6[C@@H]5C[C@@H](O)[C@]5(C)[C@@H](C7=CC(=O)OC7)CC[C@]65O)C4)O[C@@H]3C)O[C@@H]2C)C[C@H](O)[C@@H]1O [Digoxin, digoxin] ?
Response: 1.02

====

Assay: in vitro
Conditions: human
readout-name: viability at 100 µM (%)
Provide only the numeric value, understood in %.

Request: I am curious: what viability at 100 µM value has been reported for C[C@]12CCC=CC1CCC1C2CC[C@]2(C)[C@@H](c3ccc(=O)oc3)CC[C@]12O (stereo partly shown) ?
Response: 6.13

Request: I am curious: what viability at 100 µM value has been reported for C[C@]12CC=CCC1CCC1C2CC[C@]2(C)[C@@H](c3ccc(=O)oc3)CC[C@]12O (stereo partly shown) ?
Response: 1.28

Request: I am curious: what viability at 100 µM value has been reported for C[C@@H]1O[C@@H](O[C@H]2C[C@@H](O)[C@]3(CO)[C@H]4[C@H](O)C[C@]5(C)[C@@H](C6=CC(=O)OC6)CC[C@]5(O)[C@@H]4CC[C@]3(O)C2)[C@H](O)[C@H](O)[C@H]1O ?
Response: 4.09

Request: I am curious: what viability at 100 µM value has been reported for C[C@H]1O[C@@H](O[C@H]2[C@@H](O)C[C@H](O[C@H]3[C@@H](O)C[C@H](O[C@H]4CC[C@@]5(C)[C@H](CC[C@@H]6[C@@H]5C[C@@H](O)[C@]5(C)[C@@H](C7=CC(=O)OC7)CC[C@]65O)C4)O[C@@H]3C)O[C@@H]2C)C[C@H](O)[C@@H]1O ?
Response: 2.55

====

Give viability at 5 µM for every item shown.
Assay: in vitro
Conditions: human
Provide only the numeric value, understood in %.

Request: I am curious: what viability at 5 µM value has been reported for C[C@]12CCC=CC1CCC1C2CC[C@]2(C)[C@@H](c3ccc(=O)oc3)CC[C@]12O (stereo partly shown) ?
Response: 53.8

Request: I am curious: what viability at 5 µM value has been reported for C[C@]12CC=CCC1CCC1C2CC[C@]2(C)[C@@H](c3ccc(=O)oc3)CC[C@]12O (stereo partly shown) ?
Response: 32.2

Request: I am curious: what viability at 5 µM value has been reported for C[C@@H]1O[C@@H](O[C@H]2C[C@@H](O)[C@]3(CO)[C@H]4[C@H](O)C[C@]5(C)[C@@H](C6=CC(=O)OC6)CC[C@]5(O)[C@@H]4CC[C@]3(O)C2)[C@H](O)[C@H](O)[C@H]1O ?
Response: 6.26

Request: I am curious: what viability at 5 µM value has been reported for C[C@H]1O[C@@H](O[C@H]2[C@@H](O)C[C@H](O[C@H]3[C@@H](O)C[C@H](O[C@H]4CC[C@@]5(C)[C@H](CC[C@@H]6[C@@H]5C[C@@H](O)[C@]5(C)[C@@H](C7=CC(=O)OC7)CC[C@]65O)C4)O[C@@H]3C)O[C@@H]2C)C[C@H](O)[C@@H]1O ?
Response: 23.4
